target: recombinant human GPR52 (Homo sapiens, UniProt Q9Y2T5); assay: GPR52 activity: TR-FRET cAMP assay (LANCE Ultra cAMP Kit); conditions: Flp-In-CHO cells stably expressing recombinant human GPR52; cAMP production, normalized to positive control
Sequence (Q9Y2T5 whole entry): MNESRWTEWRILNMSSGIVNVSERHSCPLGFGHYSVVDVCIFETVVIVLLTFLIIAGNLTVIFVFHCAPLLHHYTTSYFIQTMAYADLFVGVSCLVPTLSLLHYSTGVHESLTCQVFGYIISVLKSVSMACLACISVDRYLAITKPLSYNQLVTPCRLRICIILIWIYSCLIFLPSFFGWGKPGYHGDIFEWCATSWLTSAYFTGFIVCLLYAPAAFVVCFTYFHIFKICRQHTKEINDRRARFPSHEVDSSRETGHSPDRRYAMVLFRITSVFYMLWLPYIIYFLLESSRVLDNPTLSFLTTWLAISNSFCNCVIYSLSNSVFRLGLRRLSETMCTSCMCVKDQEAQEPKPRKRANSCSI
pEC50: −log10 of the molar value.
PROPERTY: pEC50

For orientation, consider the following solved cases.
COc1ccc(Cc2ccnc(-c3cccc(C(N)=O)c3)c2)cc1F : 6.00 to 7.00
NC(=O)c1ccc(-c2cc(Cc3cc(F)cc(C(F)(F)F)c3)ccn2)cc1 : 7.00 to 7.60

Give pEC50 for each of the items listed below.
1. N#Cc1cc(F)cc(Cc2ccnc(-c3ccc(C(N)=O)cc3)c2)c1
2. Cc1cc(-c2cc(Cc3cc(F)c(F)c(Cl)c3)ccn2)ccc1C(N)=O
3. NC(=O)c1ccc(-c2cc(Cc3ccc(F)c(C(F)(F)F)c3)ccn2)cc1
4. Cc1cc(-c2cccc(Cc3cccc(C(F)(F)F)c3)n2)ccc1C(N)=O

["< 6.00", "> 7.60", "6.00 to 7.00", "7.00 to 7.60"]

Give pEC50 for each of the items listed below.
1. Cc1cc(-c2cc(Cc3cc(F)c(F)c(C#N)c3)ccn2)cc(F)c1C(N)=O
2. Cc1cc(-c2cc(C(O)c3cccc(C(F)(F)F)c3)ccn2)ccc1C(N)=O (stereo not drawn)

7.00 to 7.60
< 6.00
